- target-system: human thrombocytes
- assay-details: Fibrinogen binding to human thrombocytes
- condition-set: gel-filtered platelets, 125-J-fibrinogen, 20 minutes at ambient temperature; read-out: Fibrinogen binding test IC50
property: IC50 (nM)

[
  {
    "compound": "N=C(N)c1ccc(-c2ccc(OC[C@@H]3C[C@@H](CC(=O)O)C(=O)N3)cc2)cc1 [7(3)]",
    "target-system": "human thrombocytes",
    "u": "nM",
    "IC50": 31
  },
  {
    "compound": "N=C(N)c1ccc(-c2ccc(N3CC(CP(=O)(O)O)CC3=O)cc2)cc1 (stereo not drawn) [6(184)]",
    "target-system": "human thrombocytes",
    "u": "nM",
    "IC50": 420
  },
  {
    "compound": "N=C(NO)c1ccc(-c2ccc(OC[C@@H]3C[C@@H](CC(=O)O)C(=O)N3)cc2)cc1 [Example 71]",
    "target-system": "human thrombocytes",
    "u": "nM",
    "IC50": 4600
  }
]

P = CN(C)C(=O)CN1C(=O)[C@H](CC(=O)O)C[C@H]1COc1ccc(-c2ccc(C(=N)N)cc2)cc1 [7(51)]
Q = N=C(N)NCCCCCOc1ccc([C@@H]2C[C@@H](CC(=O)O)C(=O)N2CCCc2ccccc2)cc1 (relative stereo) [31(1)]
R = N=C(N)c1ccc(-c2ccc(S(=O)(=O)NC[C@@H]3C[C@@H](CC(=O)O)C(=O)N3CCCc3ccccc3)cc2)cc1 [7(70)]
// sort entries: IC50, high to low Record the ranking as a list of labels in the requested order. Q, R, P
(Q: 4700 nM, R: 400 nM, P: 27 nM)
